The measured values listed here are drawn from ChEMBL document CHEMBL3102840.

Test system: HCT-116
Test: Cytotoxicity against human HCT116 cells after 48 hrs by SRB assay
Type: functional
Conditions: HCT-116, 48 h
READOUT_TYPE: GI50 (µM)
State just the number; it will be interpreted in µM.

Below: 3 compounds and their reported GI50.
1) Cc1ccc(Cn2cc(C=C3C(=O)N(C)C(=O)N(C)C3=O)c3ccccc32)cc1 :: 5.45
2) COc1ccc(Cn2cc(C=C3C(=O)N(C)C(=O)N(C)C3=O)c3ccccc32)cc1 :: 5.01
3) CN1C(=O)C(=Cc2cn(Cc3ccc(F)cc3)c3ccccc23)C(=O)N(C)C1=O :: 6.26

Task item: Can you share its GI50? I mean this compound: CN1C(=O)C(=Cc2cn(Cc3ccc(Cl)cc3)c3ccccc23)C(=O)N(C)C1=O
Reply: 4.47
